Source of measurements: paper PMC2879007

Test: 5-MeO-DMT depletion and bufotenine formation in human CYP2D6 PM hepatocytes
Settings: human, CYP2D6 PM hepatocytes, In vitro CLint, PM hepatocytes Mean (N = 4); 5-MeO-DMT alone, 2 µM
ASSAY_ENDPOINT: hepatocyte CLint at 2 µM (µL/min/1e6 cells)
Reply with just the number (in µL/min/1e6 cells).

For the compound shown here, `COc1ccc2[nH]cc(CCN(C)C)c2c1` , give the reported hepatocyte CLint at 2 µM.
81.9

* * *

Assay: 5-MeO-DMT depletion and bufotenine formation in human CYP2D6 PM hepatocytes
Details: human, CYP2D6 PM hepatocytes, In vitro T1/2, PM hepatocytes Mean (N = 4); 5-MeO-DMT alone, 2 µM
ASSAY_ENDPOINT: half-life at 2 µM (min)
Reply with just the number (in min).

For the molecule shown here, `COc1ccc2[nH]cc(CCN(C)C)c2c1` , give the reported half-life at 2 µM.
30.8

* * *

Experiment: 5-MeO-DMT depletion and bufotenine formation in human CYP2D6 EM hepatocytes
Conditions: human, human CYP2D6 EM (extensive metabolizer) hepatocytes, In vitro T1/2, EM hepatocytes 4; 5-MeO-DMT alone, 2 µM
ASSAY_ENDPOINT: half-life at 2 µM (min)
Reply with just the number (in min).

For the molecule shown here, COc1ccc2[nH]cc(CCN(C)C)c2c1 [5-MeO-DMT, 5-Methoxy-N,N-dimethyltryptamine] , give the reported half-life at 2 µM.
34.7

* * *

Assay: serum pharmacokinetics in wild-type FVB/N mice
Type: in vivo
Conditions: FVB/N (wild-type), mouse, serum, ip, 20 mg/kg
ASSAY_ENDPOINT: Cmax (µM)
Reply with just the number (in µM).

- COMPOUND: "COc1ccc2[nH]cc(CCN(C)C)c2c1"
  Cmax (µM): 18.3

Here is another compound to look at.
For the compound shown here, CN(C)CCc1c[nH]c2ccc(O)cc12 [Bufotenine, 5-hydroxy-N,N-dimethyltryptamine] , give the reported Cmax.
0.21
